Target: T1, RTEL1∆762 (human, UniProt Q9NZ71-6 762-1300)
T1 sequence: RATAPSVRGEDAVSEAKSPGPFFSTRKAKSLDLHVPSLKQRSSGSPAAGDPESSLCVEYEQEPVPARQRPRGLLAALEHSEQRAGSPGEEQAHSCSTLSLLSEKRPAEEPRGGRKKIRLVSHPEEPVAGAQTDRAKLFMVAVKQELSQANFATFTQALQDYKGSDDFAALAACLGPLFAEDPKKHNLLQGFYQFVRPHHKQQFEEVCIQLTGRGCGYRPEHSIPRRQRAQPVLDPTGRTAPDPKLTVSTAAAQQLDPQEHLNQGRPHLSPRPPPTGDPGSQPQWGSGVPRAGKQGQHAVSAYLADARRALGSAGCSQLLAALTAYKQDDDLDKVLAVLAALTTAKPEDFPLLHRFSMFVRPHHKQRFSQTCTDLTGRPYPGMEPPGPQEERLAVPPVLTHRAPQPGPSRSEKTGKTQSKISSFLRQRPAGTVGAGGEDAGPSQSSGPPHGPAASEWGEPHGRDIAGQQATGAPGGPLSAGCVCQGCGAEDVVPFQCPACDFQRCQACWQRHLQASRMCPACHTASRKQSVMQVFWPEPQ
Test: fluorescence anisotropy; RNA folded in 0 mM KCl; 20 mM Tris pH 7.5, 50 mM KCl, 0.5 mM TCEP, 0.5 mM MgCl2, 10% glycerol, 0.1% IGEPAL, room temperature 30 min; oligos refolded in 10 mM Tris pH 7.5, 100 mM KCl; EMSA legends give 150 or 300 mM KCl
Conditions: protein: recombinant; tags: 6xHis; chain copies: 2; label: 5' fluorescein; no G4 (folded without KCl)
pKd: −log10 of the molar value.

- binder: "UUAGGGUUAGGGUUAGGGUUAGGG (ssRNA) [TERRA (FAM), not folded (0 mM KCl)]"
  pKd: 7.43

Provenance of the data: paper PMC8140157
